For human factor Xa (FXa) (Homo sapiens, UniProt P00742), measured IC50 is reported for the entries below.
I'd appreciate it if you included the unit after the number.

Notebook: Cc1nc(C(=O)Nc2ccc(Cl)cn2)c(C(=O)Nc2ccc(N3CCOC3=N)cc2)s1 [Example 12, methanesulphonate] , IC50 read as 0.3 nM

For reference, reported IC50 for N=C1OCCCN1c1ccc(NC(=O)c2nccnc2C(=O)Nc2ccc(Cl)cn2)cc1 [Example 5, methanesulphonate] stands at 2.6 nM

Field IC50 (entry N=C1OCCN1c1ccc(NC(=O)c2nccnc2C(=O)Nc2ccc(Cl)cn2)cc1 [Example 1, methanesulphonate] ) reads 0.64 nM

Recorded result, Cc1nc(C(=O)Nc2ccc(N3CCOC3=N)cc2)c(C(=O)Nc2ccc(Cl)cn2)s1 [Example 13, methanesulphonate] , IC50: 4.4 nM
